- MEASUREMENT TARGET: Nucleoprotein (Lymphocytic choriomeningitis virus (strain Armstrong)) (UniProt P09992)
- Sequence (P09992 whole entry, looked up): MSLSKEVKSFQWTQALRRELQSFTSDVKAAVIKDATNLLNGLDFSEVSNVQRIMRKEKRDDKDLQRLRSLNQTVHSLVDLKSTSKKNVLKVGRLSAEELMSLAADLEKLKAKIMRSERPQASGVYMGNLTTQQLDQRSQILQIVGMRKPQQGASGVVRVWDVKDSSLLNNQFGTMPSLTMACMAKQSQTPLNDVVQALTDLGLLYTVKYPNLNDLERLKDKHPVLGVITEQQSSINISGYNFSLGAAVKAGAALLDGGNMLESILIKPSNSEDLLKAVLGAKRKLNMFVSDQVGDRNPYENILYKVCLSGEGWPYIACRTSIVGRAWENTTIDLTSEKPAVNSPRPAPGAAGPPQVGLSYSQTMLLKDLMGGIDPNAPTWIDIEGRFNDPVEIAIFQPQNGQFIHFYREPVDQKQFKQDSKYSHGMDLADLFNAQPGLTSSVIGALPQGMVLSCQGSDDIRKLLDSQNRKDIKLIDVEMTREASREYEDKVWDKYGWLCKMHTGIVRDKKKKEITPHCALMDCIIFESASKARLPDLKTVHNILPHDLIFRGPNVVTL
- PROCEDURE DETAILS: qHTS for Inhibitors of the Functional Ribonucleoprotein Complex (vRNP) of Lymphocytic Choriomeningitis Arenaviruses (LCMV): LCMV Primary Screen - GLuc reporter signal (AID 1347086); note: nearly all actives have a fitted effect of over 70% in size
- ASSAY SETUP: LCMV minigenome vRNP cell assay, Gaussia luciferase reporter; series mostly up to 57.5 µM
Results filed as inconclusive are left out. Activity calls are given as the source filed them. Calls come from the whole dose curve.
// one of active, inactive, no free text

Use the examples below as a reference point.
Outcome logged for Fc1cc(-c2cccc3ncc(-c4cnn(C5CCNCC5)c4)nc23)cc(F)c1CN1CCOCC1 in this assay:
inactive

Per the assay record, what outcome was assigned to COc1cc2ncnc(Nc3ccc(F)c(Cl)c3)c2cc1NC(=O)C=CCN1CCCCC1 ?
inactive

Identify the outcome logged in this assay for the compound shown: O=C(O)CNC(=O)c1c(O)c2ccccc2n(Cc2ccccc2)c1=O
inactive

Entry CC(C)CC(=O)Nc1n[nH]c2c1CN(C(=O)C1CCN(C)CC1)C2(C)C : call = ?
inactive

# ---- query compound ----
Outcome? CC(=O)N[C@@H](CCC(N)=O)C(=O)O
inactive

###

- PROCEDURE DETAILS: qHTS of pediatric cancer cell lines to identify multiple opportunities for drug repurposing: Primary screen for A673 cells (AID 1347092); note: nearly all actives have a fitted effect of over 45% in size; note: potency is the fitted concentration of half-maximal effect
- ASSAY SETUP: A673 Ewing sarcoma viability, CellTiter-Glo ATP luminescence, 48 h; series mostly up to 46 µM
Inconclusive results are not listed. Activity calls are given as the source filed them. Calls follow the shape of the dose curve; as a rule, active = well fitted cell-killing curve with a large enough effect; inconclusive = small, poorly fitted or top-dose-only effect; inactive = no such curve, though single readings can be large or run the other way.
METRIC: Potency

Would you mind telling me what Potency value was observed for CC(C)(O)C=CC(=O)[C@](C)(O)[C@H]1[C@H](O)C[C@]2(C)[C@@H]3CC=C4[C@@H](C=C(O)C(=O)C4(C)C)[C@]3(C)C(=O)C[C@@]12C ?
0.187 µM (active)

Item CCOCCOC(C)=O has what recorded Potency?
inactive

Fill blank: measured Potency of the compound C=CCC1=C(C)C(OC(=O)C2C(C=C(C)C)C2(C)C)CC1=O (stereo unspecified) is ____.
48.6 µM (active)

Can you look up the measured Potency of c1ccc(CCCN2CCN(CCOC(c3ccccc3)c3ccccc3)CC2)cc1 for me?
23.5 µM (active)

May I ask what Potency has been recorded for N=c1c2c(-c3ccccc3)c(-c3ccccc3)n(Cc3ccccc3)c2ncn1C1CCC(O)CC1 (stereo unspecified) ?
18.7 µM (active)

More entries:
Bench note: what Potency did C[C@@]12OC(=O)[C@]1([C@@H](O)[C@@H]1C=CCCC1)NC(=O)[C@H]2CCCl show?
0.0469 µM (active)

Could you tell me which Potency is on file for COCCOCCO ?
inactive

I have this compound here, CC1(C)CC/C(=C/c2ccc(Cl)cc2)C1(O)Cn1cncn1 (stereo unspecified) , and I need its recorded Potency.
inactive

###

- PROCEDURE DETAILS: qHTS of pediatric cancer cell lines to identify multiple opportunities for drug repurposing: Primary screen for SJ-GBM2 cells (AID 1347091)
- ASSAY SETUP: SJ-GBM2 viability, CellTiter-Glo luminescence, 48 h; series mostly up to 46 µM
Records with an inconclusive call do not appear. The source made the active and inactive calls. The call rests on the fitted dose curve; in most records, active means well fitted cell-killing curve with a large enough effect; inconclusive means small, poorly fitted or top-dose-only effect; inactive means no such curve, though single readings can be large or run the other way.
# output must be one of active, inactive

Consider the following illustrative entries.
Fill in: this test's call for CCC1(CCC(C)C)C(=O)NC(=O)NC1=O is ___
inactive

Would you mind telling me which call this test gave COC1=CC(C)=C[C@@H](C)[C@@H](O)[C@@H](C)CC(C)=CC=C[C@H](OC)[C@H]([C@@H](C)[C@@H](O)[C@H](C)[C@@]2(O)C[C@@H](O)[C@H](C)[C@@H](C(C)C)O2)OC1=O ?
active

For this molecule, state the assay outcome: COc1ccc(N(C(=O)Oc2c(C)cccc2C)c2ccnc(Nc3ccc(N4CCN(C)CC4)cc3)n2)c(OC)c1
active

More entries:
Outcome? CS(=O)(=O)c1ccc(C(=O)C2C(=O)CCCC2=O)c([N+](=O)[O-])c1
inactive

All figures here come from PubChem BioAssay (NCATS).
